# TARGET OR TEST SYSTEM: AgamORco (Anopheles gambiae)
# Sequence (Q7QCC7 1-478): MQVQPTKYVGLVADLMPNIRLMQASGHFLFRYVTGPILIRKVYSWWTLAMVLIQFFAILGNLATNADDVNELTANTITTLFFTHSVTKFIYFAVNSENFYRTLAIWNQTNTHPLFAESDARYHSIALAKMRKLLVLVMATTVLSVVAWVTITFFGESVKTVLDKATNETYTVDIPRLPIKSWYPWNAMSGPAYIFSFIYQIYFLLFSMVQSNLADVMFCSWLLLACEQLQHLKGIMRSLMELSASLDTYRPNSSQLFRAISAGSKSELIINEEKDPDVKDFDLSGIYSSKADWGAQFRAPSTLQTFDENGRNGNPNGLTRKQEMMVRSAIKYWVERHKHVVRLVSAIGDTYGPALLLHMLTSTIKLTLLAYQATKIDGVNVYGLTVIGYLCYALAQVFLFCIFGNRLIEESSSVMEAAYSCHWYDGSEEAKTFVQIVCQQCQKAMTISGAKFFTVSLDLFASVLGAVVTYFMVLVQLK
# EXPERIMENTAL PROTOCOL: cell-based
# RUN PARAMETERS: 150 μM ORcoRAM2 (OA); read-out: IC50 in binding competition assay
# maps each entry to its IC50
Write it as a number; the unit µM goes unstated.

>  <ITEM SMILES>
CCC/C=C/C=C/C=O

>  <IC50, µM>
117

$$$$

Let's switch to this compound now.
Query: Using the record for `Cc1ccc(C(C)C)cc1O` , report its IC50.
Reply: 28.4

---

# Test system: Ae. albopictus
# EXPERIMENTAL PROTOCOL: Repellence bioassay, human hand landing counts
# Type: in vivo, Aedes albopictus
# RUN PARAMETERS: 0.04 μL equivalent per cm^2, 5 min
# maps each entry to its Mean % repellency
Respond with the figure and its unit, in that order.

Examples with answers:
>  <MOLECULE>
Cc1ccc(C(C)C)cc1O

>  <Mean % repellency>
99.1 ± 2%

$$$$
>  <MOLECULE>
CCN(CC)C(=O)c1cccc(C)c1 [DEET, N,N-Diethyl-3-methylbenzamide, reference compound]

>  <Mean % repellency>
100 ± 0%

$$$$
>  <MOLECULE>
CCC/C=C/C=C/C=O

>  <Mean % repellency>
97.9 ± 2.7%

$$$$

Let's switch to this molecule now.
Query: Using the record for `CC(C)c1ccc(CO)cc1` , report its Mean % repellency.
Reply: 78 ± 7%

---

# TARGET OR TEST SYSTEM: AgamORco (Anopheles gambiae, UniProt Q7QCC7)
# EXPERIMENTAL PROTOCOL: cell-based
# RUN PARAMETERS: 100 μM ORcoRAM2 (OA); read-out: IC50, inhibition of OA-dependent AgamORco channel activity
# maps each entry to its pIC50
Value format note: pIC50 is -log10 of concentration (mol/L); just state the number.

>  <ITEM SMILES>
Cc1ccc(C(C)C)cc1O

>  <TARGET OR TEST SYSTEM>
AgamORco (Anopheles gambiae, UniProt Q7QCC7)

>  <pIC50>
4.63

$$$$

Let's switch to this molecule now.
Query: Using the record for `CCC/C=C/C=C/C=O` , report its pIC50.
Reply: 4.22

Cited source for all entries: paper PMC7948460
